biological target: T1, oligopeptide ATYPSGHLDM (SEQ ID NO: 1) (human and mouse); assay: ELISA on peptide, Fab
T1 construct: Synthetic peptide; positions 148 to 157 of the human AQP3 polypeptide, identical in mouse; also called peptide used for immunization; oligopeptide 5
T1 peptide: ATYPSGHLDM
measurement-kind: binding result

// returns reported binding result for input BC-G6 (Fab) (Fab, V domains shown) VH: QSVEESGGRLVTPGGSLTLTCTASGFSLSGYAMTWVRQAPGKGLEWIGIINNDGISSTWYASWVKGRFTISKTSTTMDLKMTSLTTEDTATYFCARGGTSGYDIWGPGTLVTVSL VL: ALVMTQTPSPVSAAVGGTVTINCQSSPSVYKNYLSWYQQKPGQPPKLLIYGASTLASGVPSRFKGSGSGTQFTLTISDVQCDDAATYYCAGGYRGSSDIFAFGGGTEVVVK
binds

// returns reported binding result for input BC-H4 (Fab) (Fab, V domains shown) VH: QQLKESGGRLVTPGAPLTLTCTVSRFSLSSYAMTWVRQAPGKGLEWIGIINNDGVSSTWYASWVKGRFTISKTSTTMDLKMTSLTTEDTATYFCARGGTSGYDIWGPGTLVTVSS VL: ALVLTQTPSPVSAAVGGTVTINCQSSPSVYKNYLSWYQQKPGQPPKLLIYGASTLASGVPSRFKGSGSGTQFTLTISDVQCDDAATYYCAGGYRGSGDIFAFGGGTEVVVK
binds

// returns reported binding result for input BC-A8 (Fab) (Fab, V domains shown) VH: QTVKESGGRLVTPGAPLTLTCTVSRFSLSSYAMTWVRQAPGKGLEWIGIINNDGSSSTWYASWVKGRFTISKTSTTMDLKMTSLTTEDTATYFCARGGTSGYDIWGPGTLVTVSL VL: AQGLTQTPSPVSAAVGGTVTINCQSSPSVYKNYLSWYQQKPGQPPKLLIYGASTLASGVPSRFKGSGSGTQFTLTISDVQCDDAATYYCAGGYRGSSDIFAFGGGTEVVVK
binds

// returns reported binding result for input BC-E2 (Fab) (Fab, V domains shown) VH: QEQLKESGGRLVTPGAPLTLTCTVSRFSLSSYAMTWVRQAPGKGLEWIGIINNDGISSTWYASWVKGRFTISKTSTTMDLKMTSLTTEDTATYFCARGGTSGYDIWGPGTLVTVSL VL: AVVLTQTPSPVSAAVGGTVTINCQSSPSVYKNYLSWYQQKPGQPPKLLIYKASTLASGVPSRFKGSGSGTQFTLTISDVQCDDAATYYCAGGYRGSSDIFAFGGGTEVVVK
binds

// returns reported binding result for input BC-C8 (Fab) (Fab, V domains shown) VH: QSLEESGGRLVTPGGSLTLTCTVSRFSLSSYAMTWVRQAPGKGLEWIGIINNDGISSTWYASWVKGRFTISKTSTTMDLKMTSLTTEDTATYFCARGGTSGYDIWGPGTVVTVSL VL: ALVLTQTPSPVSAAVGGTVTINCQSSPSVYKNYLSWYQQKPGQPPKLLIYGASTLASGVPSRFKGSGSGTQFTLTISDVQCDDAATYYCAGGYRGSSDIFAFGGGTEVVVK
binds

---
// returns reported binding result for input BC-E4 (Fab) (Fab, V domains shown) VH: QSVKESGGRLVAPGTPLTLTCAVSGFSLSSYAMTWVRQAPGKGLEWIGIINNDGRSSTWYASWVKGRFTISKTSTTMDLKMTSPTTEDTATYFCARGGTSGYDIWGPGTLVTVSL VL: AQGMTQTPSPVSAAVGGTVTINCQSSPSVYKNYLSWYQQKPGQPPKLLIYGASTLASGVPSRFKGSGSGTRFTLTISDVQCDDAATYYCAGGYRGSSDIFAFGGGTEVVVK
binds

// returns reported binding result for input SC-H10 (Fab) (Fab, V domains shown) VH: QSLEESGGRLVTPGAPLTLTCTVSRFSLSSYAMTWVRQAPGKGLEWIGIINNDGISSTWYASWVKGRFTISKTSTTMDLKMTSLTTEDTATYFCARGGTSGYDIWGPGTLVTVSL VL: AQGLTQTPSPVSAAVGGTVTINCQSSPSVYKNYLSWYQQKPGQPPKLLIYGASTLASGVPSRFSGSGSGTQFTLTISDVQCDDAATYYCAGGYRGSSDIFAFGGGTEVVVK
binds

// returns reported binding result for input BC-E1 (Fab) (Fab, V domains shown) VH: QSVKESGGRLVAPGTPLTLTCAVSGFSLSSYAMTWVRQAPGKGLEWIGIINNDGRSSTWYASWVKGRFTISKTSTTMDLKMTSPTTEDTATYFCARGGTSGYDIWGPGTLVTVSL VL: AQGMTQTPSPVSAAVGGTVTINCQSSPSVYKNYLSWYQQKPGQPPKLLIYGASTLASGVPSRFKGSGSGTRFTLTISDVQCDDAATYYCAGGYRGSSDIFAFGGGTEVVVK
binds

// returns reported binding result for input BC-E3 (Fab) (Fab, V domains shown) VH: QSVKESGGRLVAPGTPLTLTCAVSGFSLSSYAMTWVRQAPGKGLEWIGIINNDGRSSTWYASWVKGRFTISKTSTTMDLKMTSPTTEDTATYFCARGGTSGYDIWGPGTLVTVSL VL: AQGMTQTPSPVSAAVGGTVTINCQSSPSVYKNYLSWYQQKPGQPPKLLIYGASTLASGVPSRFKGSGSGTRFTLTISDVQCDDAATYYCAGGYRGSSDIFAFGGGTEVVVK
binds

// returns reported binding result for input BC-F2 (Fab) (Fab, V domains shown) VH: QSVKESGGRLVAPGTPLTLTCAVSGFSLSSYAMTWVRQAPGKGLEWIGIINNDGRSSTWYASWVKGRFTISKTSTTMDLKMTSPTTEDTATYFCARGGTSGYDIWGPGTLVTVSL VL: AQGMTQTPSPVSAAVGGTVTINCQSSPSVYKNYLSWYQQKPGQPPKLLIYGASTLASGVPSRFKGSGSGTRFTLTISDVQCDDAATYYCAGGYRGSSDIFAFGGGTEVVVK
binds
